Provenance of the data: PubChem BioAssay AID488890

Assay summary: growth inhibition of non-replicating M. tuberculosis (AID 488890);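 also: plate controls were DMSO cells for no effect and high antibiotic wells for full effect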
Reported conditions: Mycobacterium tuberculosis non-replicating, at 25 µM, stronger effect = higher value
Out of some 320,000 compounds screened, about 1,300 (0.41%) were called active. About 3% were inconclusive and are not listed. The list is a sample of the results. Potency and affinity values are given separately.
Recorded metric: inhibition (%)
Express it in %; write the number only.

State the recorded inhibition for this entry: COc1cccc2cc(C(=O)c3ccccc3)oc12
77.7

Suppose we examine the compound C=CCn1c(O)c(N=NC(=O)c2ccc3c(c2)OCO3)c2ccccc21 ; what inhibition value has been reported?
11.7

Recorded inhibition for Cn1c(Cc2ccccc2)nnc1SCc1ccc(C(=O)O)cc1 , please?
-12

Fill in the blank: the reported inhibition of OC(CNCC1CCCO1)COc1ccc(OCC(O)CNCC2CCCO2)cc1 (stereo unspecified) is ____.
10.8

Which value of inhibition has been reported for COc1cc(CC(NC(C)=O)C(=O)NC2CCN(c3c4c(nc5ncnn35)CCC4)CC2)cc(OC)c1 (stereo unspecified) in the records?
-7.76

What value of inhibition has been reported for the following compound? CCOC(=O)c1ccc(N2CN(CC)CNC2=S)cc1
51.5

inhibition for C/C(CC(=O)Nc1cccnc1)=N\NC(=O)C(=O)Nc1cccc(C)c1 ?
6.84

Find the recorded inhibition belonging to O=C(O)C1C2C=CC(C2)C1C(=O)Nc1nccs1 (stereo unspecified) and report it.
-3.04

Item under review: COCCN1C(=O)N[C@@H](c2ccccc2)[C@@H](C(=O)OC)[C@H]1C . Reported inhibition?
-23.2

Give its inhibition value. Item: COc1ccc(S(=O)(=O)N2CCC(Nc3ccccc3Cl)CC2)cc1
35

Param item = O=C(Nc1ccc(Br)c(Br)c1)C1CCCO1 (stereo unspecified) ; retrieve measured inhibition.
40.5

----------
Assay summary: growth inhibition of non-replicating M. tuberculosis (AID 488890)
Reported conditions: Mycobacterium tuberculosis non-replicating, at 25 µM, stronger effect = higher value
About 1,300 (0.41%) of roughly 320,000 compounds were called active. Roughly 3% stayed inconclusive and do not appear here. These entries were drawn from the full list. Results with a measured potency or affinity are listed apart.
Category | rule: reported inhibition within range, see 1 = under -10%, 2 = from -10% up to 30%, 3 = 30% and over

Class? Entry: CCOc1ccc(C(=O)Nc2cc(S(=O)(=O)Nc3ccccc3Cl)ccc2N2CCOCC2)cc1
2

GET /class?item= Cc1cc(C)c(-c2csc(NC(=O)C3=COCCO3)n2)c(C)c1
3

Class for COc1ccc(NS(=O)(=O)c2ccc(NC(=S)NC(=O)c3ccc(Br)cc3)cc2)nn1 ?
3

Class for O=C(N/N=C/c1ccc([N+](=O)[O-])o1)c1ccccc1NS(=O)(=O)c1cccs1 ?
3

Sort CC(C)NCC(=O)C12CC3CC(CC(C3)C1)C2 into one of the categories.
1

// return the class label for O=C(N/N=C/c1ccc([N+](=O)[O-])cc1)c1ccc(NS(=O)(=O)c2cccs2)cc1
2

Which inhibition band matches Cc1cc(C(=O)N/N=C/c2ccc([N+](=O)[O-])cc2)c(C)o1 ?
1

Sort into band: Cc1nnc(SCC(=O)NNC(=O)c2ccco2)n1-c1cccc(Cl)c1
2

Sort into band: Cc1cc(C)c(NC(=O)C2=COCCO2)c(C)c1
1

GET /class?item= CC(OC(=O)c1snc(C(=O)NC2CCCCC2)c1N)C(=O)NC1CCCCC1 (stereo unspecified)
1

Hello team, could you let me know which band the following compound falls into: CCOC(=O)c1snc(C(=O)NC2CCCCC2)c1N
3

----------
Assay summary: growth inhibition of non-replicating M. tuberculosis (AID 488890);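 also: plate controls were DMSO cells for no effect and high antibiotic wells for full effect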
Reported conditions: Mycobacterium tuberculosis non-replicating, at 25 µM, stronger effect = higher value
Screen size: about 320,000 compounds; about 1,300 (0.41%) were called active. Not shown: some 3% with an inconclusive outcome. The list is a sample of the results. Potency and affinity values are given separately.
Recorded metric: inhibition (%)
Write the answer as a number in %, unit excluded.

Entry COc1ccc(OCCCCc2c(C)n[nH]c2C)cc1 has what inhibition?
78.2

Find the recorded inhibition belonging to Cc1ccccc1NC(=O)c1nn(C)c2c1CS(=O)(=O)c1ccccc1-2 and report it.
-16.9

// returns reported inhibition for input Cc1ccc(-n2nc3c(=O)n(CCCC(=O)NCc4ccc(Cl)cc4)nc(C)c3c2C)cc1
52.4

Could you share which inhibition value was measured for O=C(NNC1=C(C(=O)C(F)(F)F)CCC1)c1cccnc1 ?
-16.6

Field request: inhibition | item: O=C(N/N=C/c1cc(Br)c(O)c(Br)c1)c1cccc(C(F)(F)F)c1
21

Could you share which inhibition value was measured for O=C(NC1=NCCS1)c1cc(-c2ccccc2)nn1-c1ccccc1 ?
12.3

What does the data say about its inhibition? Entry: COc1cccc(CN2CCNC(=O)C2CC(=O)NC2Cc3ccccc3C2)c1 (centres undefined)
-15.6

For COCCCN(CC(=O)Nc1ccc(F)cc1)S(=O)(=O)c1cccs1 , what is its reported inhibition?
5.35

Need inhibition, item COc1ccc(/C=C(/C#N)C(=O)Nc2cccnc2)cc1OC
-2.65

Need inhibition of C1=C(CCNCc2ccccc2)CCCC1 , thanks.
-4.9

Sample COc1cc(-c2nc(-c3ccccc3)c(-c3cccs3)[nH]2)cc(OC)c1OC — what was its inhibition?
-1.14

Please give the measured inhibition for this molecule: COc1ccc(-c2n[nH]c(=S)n2-c2ccc(C)cc2C)cc1
-17.9

Item CC(C)(C)C1CCC(C(=O)Nc2ccccc2)CC1 (centres undefined) has what recorded inhibition?
77.8

Which inhibition value is on record for NC(=O)C1CCN(C(=O)NC2CC(=O)N(c3ccc4c(c3)OCCO4)C2)CC1 (centres undefined) ?
-13.4

Look at this molecule and give its reported inhibition. COc1cccc(OCCc2c(C)n[nH]c2C)c1
30.4

For the molecule shown here, CC(NCC(O)COCc1ccc(Cl)cc1)c1ccccc1 (centres undefined) , give the reported inhibition.
78.5

Can you look up the measured inhibition of O=C(N/N=C/c1cccc(C(F)(F)F)c1)c1ccc(O)cc1 for me?
16.8

Record request: inhibition value, item Cc1ccc(C)c2sc(N3CCN(C(=O)c4ccc([N+](=O)[O-])o4)CC3)nc12
77.8

Recorded inhibition for CCCCC(=O)N1CCN(c2nc3ccc(F)cc3s2)CC1 , please?
50.8

Please give the measured inhibition for this molecule: NCC(O)COCCC12CC3CC(CC(C3)C1)C2 (centres undefined)
8.67

Please give the measured inhibition for this molecule: COc1ccc(-c2cc(NCc3ccccn3)n3ncnc3n2)cc1
55.9

Which inhibition value is on record for COc1cccc(/C=N/NC(=O)c2nnn(-c3nonc3N)c2-c2cccs2)c1 ?
7.66

Return reported inhibition; argument: NC(=O)Cc1nc(-c2ccc(F)cc2)cs1
8.71

For Cc1cccc(C(=O)NCC(=O)OCC(=O)NC2CCCCC2)c1 , what is its reported inhibition?
-3.75

----------
Assay summary: growth inhibition of non-replicating M. tuberculosis (AID 488890);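 also: plate controls were DMSO cells for no effect and high antibiotic wells for full effect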
Reported conditions: Mycobacterium tuberculosis non-replicating, at 25 µM, stronger effect = higher value
Hit rate of the full screen: of about 320,000 compounds, about 1,300 (0.41%) were called active. Another 3% or so got no clear call; they are omitted. The list is a sample of the results. Measured potencies and affinities stand elsewhere.
Exercise: for every item that follows, state its recorded inhibition.
// return numeric value only (unit: %, not printed)

Could you tell me which inhibition is on file for CSCCOC(=O)COc1ccc(/C=N/NC(=O)c2nn(C)cc2Cl)cc1 ?
75.7

Look up inhibition for this molecule: O=C1NCCCC1C(=O)N/N=C/c1cc([N+](=O)[O-])ccc1O (stereo unspecified)
15.8

Look up inhibition for this molecule: CCc1ccc(C(=O)NNC(=O)c2ccc3c(=O)n4c(nc3c2)CCC4)cc1
-9.87

Entry O=C(N/N=C/c1cc([N+](=O)[O-])ccc1O)NC12CC3CC(CC(C3)C1)C2 : reported inhibition = ?
54.2

Sample CN1CC(=O)N/C1=N\C(=O)Nc1ccc(O)cc1 — what was its inhibition?
-12.3

Would you mind telling me what inhibition value was observed for O=C(O)C(F)(F)S(=O)(=O)O ?
-5.17

What value of inhibition has been reported for the following molecule? CC(C)c1ccc(/C=N/NC(=O)c2c(Cl)cnn2C)cc1
-10.4

Given Cc1ccc(NC(=O)C2C3C=CC4(O3)C2C(=O)N(CCN2CCOCC2)C4C(=O)NC2CCCCC2)cc1C (stereo unspecified) , state its recorded inhibition.
4.86

Need inhibition, item CC(C)(C)C(=O)CN1C2=NCCCN2c2ccccc21
12.1

Data request, read-out inhibition, for CCCN1CCN(S(=O)(=O)c2ccc(-n3cnnn3)cc2)CC1
0.97

inhibition for CCNC(=O)C(=O)N/N=C/c1cc([N+](=O)[O-])ccc1O ?
27.1

----------
Assay summary: growth inhibition of non-replicating M. tuberculosis (AID 488890);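 also: plate controls were DMSO cells for no effect and high antibiotic wells for full effect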
Reported conditions: Mycobacterium tuberculosis non-replicating, at 25 µM, stronger effect = higher value
Among all 320,000 compounds or so, about 1,300 (0.41%) were called active. About 3% were inconclusive and are not listed. Not all results are given here. Results with a measured potency or affinity are listed apart.
Recorded metric: inhibition (%)
A number alone suffices; assume %.

Given the molecule CCN(CC)c1ccc2c(C)c(Cl)c(=O)oc2c1 , what is its reported inhibition?
2.25

Item COC(=O)CCC(=O)OC1(C)C(=O)C=C2C=C(C3CC3)N(C3CCCC3)C=C2C1=O (stereo unspecified) has what recorded inhibition?
21.8

Recorded inhibition of COc1ccccc1Nc1nn2c(=O)c3ccc(C(=O)N4CCC(C)CC4)cc3nc2s1 , please.
33.4

# lookup: inhibition of O=C(C1CC(=O)N(c2ccc(Cl)cc2)C1)N1CCOCC1 (stereo unspecified)
-7.5

# query: inhibition of entry Cc1nnsc1C(=O)N1CCN(c2cc(C(F)(F)F)ccn2)CC1
1.32

Given the molecule Cc1ccc(NC(=S)N(CCCN2CCOCC2)Cc2cccnc2)cc1C , what is its reported inhibition?
-0.2
